A collection of binders and their measured pKd
molecular target: canine FcRn complex (FcRn-alpha subunit and beta-microglobulin), His-tagged, biotin labeled (canine); test: SPR (Biacore), biotin-FcRn captured on SA surface, IgG flowed over, pH 6, 15 C
The read-out pKd is expressed as -log10 of concentration in moles per litre.

* canine IgGB (65) mAb with mutation Y436P (antibody, part only; not given: variable domains of unnamed mAb, not shown: another chain or arm of the molecule) constant: ASTTAPSVFPLAPSCGSTSGSTVALACLVSGYFPEPVTVSWNSGSLTSGVHTFPSVLQSSGLYSLSSMVTVPSSRWPSETFTCNVAHPASKTKVDKPVPKRENGRVPRPPDCPKCPAPEMLGGPSVFIFPPKPKDTLLIARTPEVTCVVVDLDPEDPEVQISWFVDGKQMQTAKTQPREEQFNGTYRVVSVLPIGHQDWLKGKQFTCKVNNKALPSPIERTISKARGQAHQPSVYVLPPSREELSKNTVSLTCLIKDFFPPDIDVEWQSNGQQEPESKYRTTPPQLDEDGSYFLYSKLSVDKSRWQRGDTFICAVMHEALHNHPTQESLSHSPGK | 6.18

Lab note: next binder to report on.
Query string: Tell us which pKd value is on record for canine IgGB (65) mAb with mutation Q311P (antibody, part only; not given: variable domains of unnamed mAb, not shown: another chain or arm of the molecule) constant: ASTTAPSVFPLAPSCGSTSGSTVALACLVSGYFPEPVTVSWNSGSLTSGVHTFPSVLQSSGLYSLSSMVTVPSSRWPSETFTCNVAHPASKTKVDKPVPKRENGRVPRPPDCPKCPAPEMLGGPSVFIFPPKPKDTLLIARTPEVTCVVVDLDPEDPEVQISWFVDGKQMQTAKTQPREEQFNGTYRVVSVLPIGHPDWLKGKQFTCKVNNKALPSPIERTISKARGQAHQPSVYVLPPSREELSKNTVSLTCLIKDFFPPDIDVEWQSNGQQEPESKYRTTPPQLDEDGSYFLYSKLSVDKSRWQRGDTFICAVMHEALHNHYTQESLSHSPGK
Result string: 7.67
